Biological target: T1, human IL-4Rα (human, UniProt P24394 26-232)
T1 construct: also called Hu IL-4Rα; hIL-4Rα
T1 sequence: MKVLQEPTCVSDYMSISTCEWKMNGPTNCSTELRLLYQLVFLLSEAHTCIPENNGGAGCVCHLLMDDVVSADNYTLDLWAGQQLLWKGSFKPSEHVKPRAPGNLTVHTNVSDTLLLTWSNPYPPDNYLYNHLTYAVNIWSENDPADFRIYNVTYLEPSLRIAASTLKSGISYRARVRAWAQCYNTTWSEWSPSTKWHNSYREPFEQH
Assay: SPR, Carterra LSA;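 also: antibodies captured on an anti-human Fc sensor chip, antigen injected at several concentrations, association and dissociation rates fitted with a 1:1 Langmuir model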
// reported KD Relative to Dupilumab for each item listed
Please respond with just the number, no unit label.

Study these solved cases before continuing.
| binder | KD Relative to Dupilumab |
| --- | --- |
| Construct 36 (mAb469) (antibody, IgG4, V domains shown, VH/VL only) VH: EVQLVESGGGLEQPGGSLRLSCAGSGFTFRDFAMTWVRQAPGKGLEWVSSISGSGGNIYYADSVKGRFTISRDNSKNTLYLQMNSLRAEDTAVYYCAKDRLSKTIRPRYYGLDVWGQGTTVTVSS VL: DIVMTQSPLSLPVTPGEPASISCRSSQSLLYSIGKNYVDWYLQKSGQSPQLLIYEGNNRASGVPDRFSGSGSGTDFTLKISRVEAEDVGFYYCMQSLTSPYTFGQGTKLEIK | 0.99 |
| Construct 37 (mAb470) (antibody, IgG4, V domains shown, VH/VL only) VH: EVQLVESGGGLEQPGGSLRLSCAGSGFTFRTYAMTWVRQAPGKGLEWVSSISGGGGNTYYADSVKGRFTISRDNSKNTLYLQMNSLRAEDTAVYYCAKDRLSVTVRPRYYGLDVWGQGTTVTVSS VL: DIVMTQSPLSLPVTPGEPASISCRASQSLLYSVGYNYVDWYLQKSGQSPQLLIYLGNNRASGVPDRFSGSGSGTDFTLKISRVEAEDVGFYYCMQSLTSPYTFGQGTKLEIK | 1.03 |

From here, focus on the item given below.
Give KD Relative to Dupilumab for the following binder: Construct 27 (mAb435) (antibody, IgG4, V domains shown, VH/VL only) VH: EVQLVESGGGLEQPGGSLRLSCAGSGFTFTDFAMTWVRQAPGKGLEWVSSISGSGGNKYYADSVKGRFTISRDNSKNTLYLQMNSLRAEDTAVYYCAKDRLSVTVRPRYYGLDVWGQGTTVTVSS VL: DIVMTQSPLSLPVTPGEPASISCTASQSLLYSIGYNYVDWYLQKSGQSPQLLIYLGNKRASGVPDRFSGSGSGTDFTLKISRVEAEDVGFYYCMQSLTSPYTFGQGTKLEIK
1.12
